assay: Permeability of the compound at pH 6.2 by PAMPA; format: ADME; details: read-out: permeability
// NO strictly below 40 ×10⁻⁶ cm/s in Papp; YES otherwise

Q: Textbook exercise: given the entry CC(C)=CC[C@@]12OC(C)(C)[C@@H]3C[C@@H](C=C4C(=O)c5c(O)cccc5O[C@]431)C2=O , state whether its Papp is greater than or equal to 40 ×10⁻⁶ cm/s.
Result: NO

Q: Determine whether this molecule has Papp no lower than 40 ×10⁻⁶ cm/s: C/C(=C/C[C@@]12OC(C)(C)[C@@H]3C[C@@H](C=C4C(=O)c5c(O)cccc5O[C@]431)C2=O)COC(=O)CN1CCCCC1
Result: YES

Q: Is Papp at least 40 ×10⁻⁶ cm/s? Consider C/C(=C/C[C@@]12OC(C)(C)[C@@H]3C[C@@H](C=C4C(=O)c5c(O)cccc5O[C@]431)C2=O)COC(=O)CN1CCN(C)CC1
Result: NO

Q: Form field: Papp at least 40 ×10⁻⁶ cm/s? Entry: C/C(=C/C[C@@]12OC(C)(C)[C@@H]3C[C@@H](C=C4C(=O)c5c(O)cccc5O[C@]431)C2=O)COC(=O)CN(C)C
Result: YES

Q: Decide: Papp of CCN(CC)CC(=O)OC/C(C)=C\C[C@@]12OC(C)(C)[C@@H]3C[C@@H](C=C4C(=O)c5c(O)cccc5O[C@]431)C2=O >= 40 ×10⁻⁶ cm/s?
Result: YES

Q: Form field: Papp at least 40 ×10⁻⁶ cm/s? Entry: CC(C)NCC(O)COc1cccc2ccccc12 (centres undefined)
Result: YES

Q: Decide: is the reported value of Papp for C/C(=C/C[C@@]12OC(C)(C)[C@@H]3C[C@@H](C=C4C(=O)c5c(O)cccc5O[C@]431)C2=O)COC(=O)Cn1ccnc1 equal to or greater than 40 ×10⁻⁶ cm/s?
Result: NO

Q: Would you say C/C(=C/C[C@@]12OC(C)(C)[C@@H]3C[C@@H](C=C4C(=O)c5c(O)cccc5O[C@]431)C2=O)COC(=O)CN1CCCC1 shows Papp at minimum 40 ×10⁻⁶ cm/s?
Result: NO

---

test: Permeability of the compound at pH 7.4 by PAMPA; assay type: ADME; details: read-out: permeability
Label yes (1) when Papp is strictly below 40 ×10⁻⁶ cm/s; at or above that, label no (0).

Answered cases to consult:
C/C(=C/C[C@@]12OC(C)(C)[C@@H]3C[C@@H](C=C4C(=O)c5c(O)cccc5O[C@]431)C2=O)COC(=O)Cn1ccnc1
yes (1)
C/C(=C/C[C@@]12OC(C)(C)[C@@H]3C[C@@H](C=C4C(=O)c5c(O)cccc5O[C@]431)C2=O)COC(=O)CN1CCCCC1
no (0)
C/C(=C/C[C@@]12OC(C)(C)[C@@H]3C[C@@H](C=C4C(=O)c5c(O)cccc5O[C@]431)C2=O)COC(=O)CN1CCN(C)CC1
yes (1)
C/C(=C/C[C@@]12OC(C)(C)[C@@H]3C[C@@H](C=C4C(=O)c5c(O)cccc5O[C@]431)C2=O)COC(=O)CN(C)C
no (0)
CC(C)=CC[C@@]12OC(C)(C)[C@@H]3C[C@@H](C=C4C(=O)c5c(O)cccc5O[C@]431)C2=O
yes (1)

Q: Below 40 ×10⁻⁶ cm/s on Papp? Entry C/C(=C/C[C@@]12OC(C)(C)[C@@H]3C[C@@H](C=C4C(=O)c5c(O)cccc5O[C@]431)C2=O)COC(=O)CN1CCCC1
Result: yes (1)

Q: Say whether its Papp is strictly beneath 40 ×10⁻⁶ cm/s. Entry: C/C(=C/C[C@@]12OC(C)(C)[C@@H]3C[C@@H](C=C4C(=O)c5c(O)cccc5O[C@]431)C2=O)COC(=O)CN1CCOCC1
Result: no (0)

Q: Hello, I'm reviewing records and need to know if Papp of CCN(CC)CC(=O)OC/C(C)=C\C[C@@]12OC(C)(C)[C@@H]3C[C@@H](C=C4C(=O)c5c(O)cccc5O[C@]431)C2=O is below 40 ×10⁻⁶ cm/s. Could you check?
Result: no (0)
